- Test System: T1, human IL-1β (human, UniProt P01584 117-269)
- T1 construct: antigen of the ABT2 dAbs; also called hIL-1β; IL-1 beta
- Protocol Description: IC50 column of Table 63; receptor binding assay presumed
pIC50: −log10 of the molar value.
Measurement Type: pIC50

Previously resolved entries follow.
ABT2-65-29 (other, VH dAb) VH: EVQLLESGGGLVQPGGSLRLSCAASGFTFEDYQMGWVRQAPGKGLEWVSSISAMGNRTYYADSVKGRFTISRDDSKNTLYLQMNSLRAEDTAVYYCAQNLVLVRVGWWMFDYWGQGTLVTVSS
7.70
ABT2-65-12 (other, VH dAb) VH: EVQLLESGGGLVQPGGSLRLSCAASGFTFREYWMGWVRQAPGKGLEWVSSISAMGNRTYYADSVKGRFTISRDDSKNTLYLQMNSLRAEDTAVYYCANNLVRTQSKMWMFDYWGQGTLVTVSS
7.70

[1] ABT2-65-89 (other, VH dAb) VH: EVQLLESGGGLVQPGGSLRLSCVASGFTFEDYQMGWVRQAPGKGLEWVSSISAMGNRTYYADSVKGRFTISRDDSKNTLYLQMNSLRAEDTAVYYCAQNMVRLGRSRWMFDYWGQGTLVTVSS
[2] ABT2-65-133 (other, VH dAb) VH: EVQLLESGGGLVQPGGSLRLSCAASGFTFEDYQMGWVRQAPGKGLEWVSSISAMGNRTYYADSVKGRFTISRDDSKNTLYLQMNSLRAEDTAVYYCAENLVHWKRGGWMFDYWGQGTLVTVSS
Query :: Could you kindly indicate whether 1 or 2 has the higher pIC50 value? I would appreciate it if you answered with the label of your choice.
Result :: 1
(1: 8.00, 2: 7.52)

Every entry's value here was drawn from patent US20090291081A1.
